# Test system: PC-3 prostate
# experiment.notes: NCI tumour cell line growth inhibition, 48 h; in the data active = GI50 below about 0.43 µM; inactive = the rest
Response enum: active, inactive

Study these solved cases before continuing.
CCOC(=O)c1c(-c2ccccc2)n2c(=O)cc(C)c3c(O)c(O)cc1c32 = inactive
COc1ccc(-c2nc3sccn3c2-c2ccnc(NCCNS(=O)(=O)c3ccc(C(F)(F)F)cc3)n2)cc1 = active

Call for entry CC1(C)CC[C@]23CC[C@]4(C)[C@H](CC[C@@H]5[C@@]6(C)CCCNC(C)(C)[C@@H]6CC[C@]54C)[C@H]2[C@H]1OC3 :
inactive

Call for entry Cc1cc(S(=O)(=O)Nc2nc3ccccc3c(=O)n2Cc2ccco2)c(S)cc1Cl :
inactive

Call for entry COc1ccc2c(c1)OCC1c3cc(OC)c4ccccc4c3OC21 (centres undefined) :
inactive

Call for entry CO/N=C(/C)COc1ccc2c(c1)oc(=O)c1cc(OC)ccc12 :
inactive

Call for entry Cc1ccc(NC(=S)NNC(=S)Nc2ccc(C)cc2)cc1 :
inactive

Call for entry CCOC(=O)c1c(C)n([O-])c2cc(F)c(F)cc2[n+]1=O :
inactive

Call for entry C[C@@]12CC[C@@H](O)C[C@@H]1CC[C@H]1[C@H]2CC[C@@]2(C)[C@H](c3ccc(=O)oc3)CC[C@@]12O :
active
